- Assay remarks: Quantitative High-Throughput drug screen in 47 multiple myeloma cell lines against the NCATS MIPE library collection: LP1_DSMZ cell viability assay (AID 1918982); further: nearly all actives have a fitted effect of over 35% in size
- Reported conditions: LP1 myeloma viability, CellTiter-Glo ATP luminescence, 48 h; series mostly up to 45.8 µM
Records with an inconclusive call do not appear. The source made the active and inactive calls. The call rests on the fitted dose curve; in most records, active means well fitted cell-killing curve with a large enough effect; inconclusive means small, poorly fitted or top-dose-only effect, or effect the other way; inactive means no such curve, though single readings can be large or run the other way.
Output constraint: value belongs to true (1) (active), false (0) (inactive)

>>> df
                                   compound        cat
0  CC1(O)CC(c2nc(-c3ccc4ccc(-c5ccccc5)nc4c3)c3c(N)nccn23)C1 (stereo not given)   true (1)
1  O=C(Nc1cc(C(F)(F)F)cc(C(F)(F)F)c1)c1cc(Cl)ccc1O   true (1)
2  Cc1cn2cc(C(=O)N(C)CCO)cc(N[C@@H]3CCOc4cccc(C)c43)c2n1  false (0)
3    CCCCc1nc2cc(C=CC(=O)NO)ccc2n1CCN(CC)CC   true (1)
4  C[C@@]12O[C@@H](C[C@]1(O)CO)n1c3ccccc3c3c4c(c5c6ccccc6n2c5c31)CNC4=O   true (1)

[in] Assay outcome for NC(=O)c1cccc2cn(-c3ccc([C@@H]4CCCNC4)cc3)nc12 : what was it?
[out] false (0)

[in] Okay, and CCCCOc1c(C(=O)c2c(F)cc(C)cc2F)cnc2n[nH]cc12 ?
[out] true (1)

[in] Check CCCNC(=O)Nc1ccc(Oc2ncnc3cc(OC)c(OC)cc23)cc1Cl too.
[out] false (0)

[in] # iterate: Cc1nc2cnc3ccc(C#Cc4cccnc4)cc3c2n1-c1ccc(C(C)(C)C#N)cc1
[out] true (1)

[in] Would you kindly repeat that for COc1cc(=C2C=c3ccccc3=N2)[nH]c1=Cc1[nH]c(C)cc1C ?
[out] true (1)

Value source: PubChem BioAssay (NCATS)
